- study.system: AGTR1 (Homo sapiens)
- Construct: host or cells: Pathunter CHO-K1 AGTR1 β-arrestin cell line (CHO-K1)
- Sequence (P30556 whole entry): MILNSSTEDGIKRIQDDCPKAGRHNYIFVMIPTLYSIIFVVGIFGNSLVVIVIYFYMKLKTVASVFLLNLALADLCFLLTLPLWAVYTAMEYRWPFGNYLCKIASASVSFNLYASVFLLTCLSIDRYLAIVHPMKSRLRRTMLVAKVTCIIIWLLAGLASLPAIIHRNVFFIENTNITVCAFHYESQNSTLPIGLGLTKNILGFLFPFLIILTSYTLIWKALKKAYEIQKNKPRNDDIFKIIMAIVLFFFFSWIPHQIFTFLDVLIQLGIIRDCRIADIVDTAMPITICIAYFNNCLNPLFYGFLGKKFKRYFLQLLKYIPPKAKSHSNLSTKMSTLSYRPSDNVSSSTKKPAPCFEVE
- assay.overview: DiscoveRx β-arrestin2 recruitment assay (enzyme complementation, Pathunter CHO-K1 AGTR1 β-arrestin cell line)
- Assay type: cell-based
- condition.info: DiscoveRx β-arrestin2 recruitment, maximal response
Mark criterion met only for DiscoveRx β-arrestin2 Ymax (%) values smaller than 30%; exact matches and larger values are criterion not met.

For orientation, consider the following solved cases.
INSERT INTO results (compound, study_system, answer_label) VALUES
  ('CCCCc1ncc(C(=O)Nc2ccc(C)nn2)n1Cc1ccc(-c2cc(-c3ccccc3)ccc2-c2nn[nH]n2)cc1', 'AGTR1 (Homo sapiens)', 'criterion met'),
  ('CCCCC1=NC2(CCOC2)C(=O)N1Cc1ccc(-c2cc(-c3ccccc3F)ccc2-c2nnn[nH]2)cc1 (single isomer, unassigned) [Example 148]', 'AGTR1 (Homo sapiens)', 'criterion not met'),
  ('CCc1nc2c(C)cc(C)nc2n1Cc1ccc(-c2cc(-c3ccsn3)ccc2-c2nn[nH]n2)cc1', 'AGTR1 (Homo sapiens)', 'criterion met'),
  ('CCc1nc2c(C)cc(C)nc2n1Cc1ccc(-c2cc(Oc3ncccc3Cl)ccc2-c2nn[nH]n2)cc1', 'AGTR1 (Homo sapiens)', 'criterion met'),
  ('CCCc1nc(C(C)(C)O)c(C(=O)O)n1Cc1ccc(-c2cc(-c3ccccc3)ccc2-c2nn[nH]n2)cc1', 'AGTR1 (Homo sapiens)', 'criterion not met');

Consider the compound CCc1nc2c(C)cc(C)nc2n1Cc1ccc(-c2cc(Oc3ccccc3)ccc2C(=O)O)cc1 . Is its DiscoveRx β-arrestin2 Ymax (%) strictly less than 30%?
criterion met

Can you check CCc1nc2c(C)cc(C)nc2n1Cc1ccc(-c2cc(-c3cccc(C)c3)ccc2C(=O)O)nn1 next?
criterion met

And the next one, CCOc1nc2cccc(C(=O)O)c2n1Cc1ccc(-c2cc(Oc3cccc(OC(F)(F)F)c3)ccc2-c2nn[nH]n2)cc1 ?
criterion met

Here is the next compound: CCc1nc2c(C)cc(C)nc2n1Cc1ccc(-c2cc(N3CCC(OC)CC3)ccc2-c2nn[nH]n2)cc1
criterion met

Another: CCc1nc2c(C)cc(C)nc2n1Cc1ccc(-c2cc(C3=CCCCC3)ccc2-c2nn[nH]n2)cc1
criterion not met

Next compound up: CCCCC(=O)N(Cc1ccc(-c2cc(-c3cccc(OC)n3)ccc2-c2nn[nH]n2)cc1)C1(C(=O)O)CCCCC1
criterion not met

What would you report for CCCC1=NC2(CCOC2)C(=O)N1Cc1ccc(-c2cc(-c3cccc(C)c3)ccc2-c2nnn[nH]2)cc1 (single isomer, unassigned) [Example 163] ?
criterion not met

And then CCc1nc2c(C)cc(C)nc2n1Cc1ncc(-c2cc(-c3cccc(C)c3)ccc2C(=O)O)cn1 , what is it?
criterion not met

Origin of the recorded values: patent US12037324B2
